Data provenance: patent US10947242B2

Molecular target: Human recombinant PDE3A (hPDE3A) (Homo sapiens)
Construct: purchased Scottish Biomedical; host or cells: Sf9 insect cells
Sequence (Q14432 whole entry): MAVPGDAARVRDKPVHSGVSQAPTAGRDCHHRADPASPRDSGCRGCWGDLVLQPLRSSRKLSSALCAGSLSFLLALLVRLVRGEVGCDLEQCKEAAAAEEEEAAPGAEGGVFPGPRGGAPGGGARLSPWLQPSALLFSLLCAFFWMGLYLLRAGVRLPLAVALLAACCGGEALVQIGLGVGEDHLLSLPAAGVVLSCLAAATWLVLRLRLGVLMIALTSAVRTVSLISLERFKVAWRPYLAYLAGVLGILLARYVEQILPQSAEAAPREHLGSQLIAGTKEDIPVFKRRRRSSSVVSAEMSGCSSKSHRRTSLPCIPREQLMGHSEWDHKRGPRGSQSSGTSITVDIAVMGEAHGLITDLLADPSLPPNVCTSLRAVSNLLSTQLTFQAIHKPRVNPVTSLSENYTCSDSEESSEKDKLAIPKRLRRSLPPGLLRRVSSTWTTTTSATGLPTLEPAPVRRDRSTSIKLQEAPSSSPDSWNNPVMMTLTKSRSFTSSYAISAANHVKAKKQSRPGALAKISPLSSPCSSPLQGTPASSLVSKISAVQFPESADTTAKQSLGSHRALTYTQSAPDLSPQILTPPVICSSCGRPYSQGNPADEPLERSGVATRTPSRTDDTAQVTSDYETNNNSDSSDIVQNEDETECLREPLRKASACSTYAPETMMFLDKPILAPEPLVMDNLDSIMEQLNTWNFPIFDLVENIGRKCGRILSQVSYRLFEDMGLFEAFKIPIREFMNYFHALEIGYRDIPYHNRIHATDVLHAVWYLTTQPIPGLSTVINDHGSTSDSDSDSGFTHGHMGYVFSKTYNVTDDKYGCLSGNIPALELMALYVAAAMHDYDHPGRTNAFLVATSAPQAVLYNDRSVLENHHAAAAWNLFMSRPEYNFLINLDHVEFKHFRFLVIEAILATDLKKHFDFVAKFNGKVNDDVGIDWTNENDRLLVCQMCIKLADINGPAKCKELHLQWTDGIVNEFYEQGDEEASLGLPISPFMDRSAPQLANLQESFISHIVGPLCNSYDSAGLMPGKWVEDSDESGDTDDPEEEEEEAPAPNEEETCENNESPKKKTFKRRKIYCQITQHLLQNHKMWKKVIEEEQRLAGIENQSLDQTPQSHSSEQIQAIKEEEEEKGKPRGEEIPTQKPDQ
Assay: In vitro assay PDE3A (SPA, 3H-cAMP hydrolysis);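 note: the method names PDE3A and the table heading PDE3B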
Format: biochemical
Conditions: hPDE3B pIC50; read-out: pIC50 (converted)
The threshold is 4 µM. Values of IC50 beneath it are tagged t; values meeting or exceeding it are tagged f.

(Q) is_below(IC50, 4 µM) for Cc1nocc1C(=O)N1CC[C@@H](C)[C@H](c2cc(C(F)F)nc3ncnn23)C1 ?
(A) f

(Q) Try the compound Cc1cc([C@@H]2CN(C(=O)c3cc(C4CC4)ncc3C(F)(F)F)CC[C@H]2C)n2ncnc2n1
(A) f

(Q) Item: COc1nc(N)ncc1C(=O)N1CC[C@@H](C)[C@H](c2cc(C(F)F)nc3ncnn23)C1
(A) f

(Q) Also need O=C(c1ccnc2ccccc12)N1[C@H]2CC[C@H](c3cc(C(F)F)nc4ncnn34)[C@@H]1CC2 , thanks.
(A) f

(Q) Another compound to check: C[C@@H]1CCN(C(=O)c2cccc3c2OC(F)(F)O3)C[C@H]1c1cc(C(F)F)nc2ncnn12
(A) f

(Q) Quick one: Cc1cc(C(=O)N2CC[C@@H](C)[C@H](c3cc(C(F)F)nc4ncnn34)C2)cc(OC(F)F)n1
(A) t

(Q) What do you have for Cc1cc(C(=O)N2CC[C@@H](C)[C@H](c3cc(C(F)F)nc4ncnn34)C2)cc(F)c1F ?
(A) t

(Q) And the next one, O=C(c1cc(Cl)cc(Cl)c1)N1[C@H]2CC[C@H](c3cc(C(F)F)nc4ncnn34)[C@@H]1CC2 ?
(A) f

(Q) // same read-out, input: Cc1cc(C(=O)N2CC[C@@H](C)[C@H](c3cc(C(F)F)nc4ncnn34)C2)c(F)c(OC2CC2)n1
(A) t

(Q) Lookup C[C@@H]1CCN(C(=O)c2cnc(O)c(Cl)c2)C[C@H]1c1cc(C(F)F)nc2ncnn12
(A) f

(Q) Can you check COc1cc(C(=O)N2CC[C@@H](C)[C@H](c3cc(C(F)F)nc4ncnn34)C2)cc(Cl)n1 next?
(A) t

(Q) Same question for Cc1cc([C@@H]2CN(C(=O)c3cnc(Cl)c(Cl)c3)CC[C@H]2C)n2ncnc2n1 please.
(A) f

(Q) Next record, please: Cc1csc(C(=O)N2CC[C@@H](C)[C@H](c3cc(C(F)F)nc4ncnn34)C2)c1Cl
(A) t

(Q) What about O=C(c1ccc2cccn2c1)N1[C@H]2CC[C@H](c3cc(C(F)F)nc4ncnn34)[C@@H]1CC2 ?
(A) t

(Q) And the next one, COc1ncc(C)cc1C(=O)N1CC[C@@H](C)[C@H](c2cc(C(F)F)nc3ncnn23)C1 ?
(A) f

---

Target: Human recombinant PDE2A (hPDE2A) (Homo sapiens)
Construct: His tag (inferred from metal chelate purification); made in house; host or cells: Sf9 insect cells (baculovirus)
Sequence (O00408 whole entry): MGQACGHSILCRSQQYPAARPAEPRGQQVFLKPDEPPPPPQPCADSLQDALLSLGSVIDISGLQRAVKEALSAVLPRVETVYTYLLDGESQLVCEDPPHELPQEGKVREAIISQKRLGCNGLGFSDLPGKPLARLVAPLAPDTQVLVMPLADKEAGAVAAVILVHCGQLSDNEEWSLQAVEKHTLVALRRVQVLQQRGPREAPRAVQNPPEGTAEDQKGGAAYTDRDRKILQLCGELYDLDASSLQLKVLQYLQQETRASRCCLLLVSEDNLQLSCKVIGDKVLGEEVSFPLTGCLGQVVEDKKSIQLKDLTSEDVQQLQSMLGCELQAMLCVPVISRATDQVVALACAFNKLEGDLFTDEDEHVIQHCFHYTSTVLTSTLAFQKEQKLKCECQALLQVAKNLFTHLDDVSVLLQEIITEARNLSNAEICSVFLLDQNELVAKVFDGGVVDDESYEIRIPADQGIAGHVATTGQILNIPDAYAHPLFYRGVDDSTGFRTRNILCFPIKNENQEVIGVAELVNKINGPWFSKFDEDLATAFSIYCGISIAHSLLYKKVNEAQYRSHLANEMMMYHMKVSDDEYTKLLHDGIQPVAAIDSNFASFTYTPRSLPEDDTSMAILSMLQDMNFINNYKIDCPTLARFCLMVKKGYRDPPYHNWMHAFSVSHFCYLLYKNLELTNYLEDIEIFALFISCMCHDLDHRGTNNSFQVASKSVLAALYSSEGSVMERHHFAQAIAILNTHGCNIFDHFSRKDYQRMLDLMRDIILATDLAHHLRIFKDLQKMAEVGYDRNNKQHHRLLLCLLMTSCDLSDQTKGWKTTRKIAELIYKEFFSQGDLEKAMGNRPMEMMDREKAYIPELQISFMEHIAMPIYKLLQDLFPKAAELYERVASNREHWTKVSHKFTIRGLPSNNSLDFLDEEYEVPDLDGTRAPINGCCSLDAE
Experiment: In vitro assay PDE2A (SPA, 3H-cGMP hydrolysis)
Assay type: biochemical
Conditions: read-out: hPDE2A pIC50 (converted)
So I've got a bunch of compounds here, and I need their IC50 values.
Respond with the bare value in nM.

(Q) Lookup: IC50 / Human recombinant PDE2A (hPDE2A) (Homo sapiens) / Cc1cc(C(=O)N2[C@H]3CC[C@@H]2[C@H](c2cc(C(F)F)nc4ncnn24)CC3)cc(C2CC2)n1 [Compound 274]
(A) 288

(Q) Another compound to look at: C[C@@H]1CCN(C(=O)c2cc(Cl)cnc2C(F)(F)F)C[C@H]1c1cc(C(F)F)nc2ncnn12 [Compound 39]
(A) 8.32

(Q) Can you handle COc1cc(C(=O)N2CC[C@@H](C)[C@H](c3cc(C)nc4ncnn34)C2)c(C(F)(F)F)cn1 [Compound 37] next?
(A) 17.4

(Q) Also, Cc1cnc(Cl)cc1C(=O)N1CC[C@@H](C)[C@H](c2cc(C(F)F)nc3ncnn23)C1 [Compound 27] please.
(A) 0.912

(Q) Quick one: Cc1cc([C@H]2CN(C(=O)c3ccc4nccn4c3)CC[C@@H]2C)n2ncnc2n1 [Compound 216]
(A) 437

(Q) Same lookup for C[C@@H]1CCN(C(=O)c2cocn2)C[C@H]1c1cc(C(F)F)nc2ncnn12 [Compound 87] , please.
(A) 214

(Q) What do we get for CC(C)Oc1cc(C(=O)N2CC[C@@H](C)[C@H](c3cc(C(F)F)nc4ncnn34)C2)cc(C(C)C)c1 [Compound 144] ?
(A) 34.7

(Q) Try this compound next: Cc1cc(C(=O)N2[C@H]3CC[C@@H]2[C@H](c2cc(C(F)F)nc4ncnn24)CC3)cc(C)n1 [Compound 30]
(A) 3550

(Q) Subsequent entry: Cn1c(C(=O)N2[C@H]3CC[C@H](c4cc(C(F)F)nc5ncnn45)[C@@H]2CC3)cc2ccccc21 [Compound 300]
(A) 6.46

(Q) And for Cc1cc([C@@H]2CN(C(=O)c3ccc(C(C)(C)C)o3)CC[C@H]2C)n2ncnc2n1 [Compound 9] ?
(A) 13.8

(Q) And what about the compound COc1ncc(C(=O)N2CC[C@@H](C)[C@H](c3cc(C(F)F)nc4ncnn34)C2)cc1C1CC1 [Compound 73] ?
(A) 1.95

(Q) Cool, now C[C@@H]1CCN(C(=O)c2cn(C)c3ccccc23)C[C@H]1c1cc(C(F)F)nc2ncnn12 [Compound 328]
(A) 0.631

(Q) Param item: Cc1cc(C(=O)N2CC[C@@H](C)[C@H](c3cc(C(F)F)nc4ncnn34)C2)cnc1C [Compound 49]
(A) 2.09

(Q) Please do the same for Cc1nc(C(=O)N2CC[C@@H](C)[C@H](c3cc(C(F)F)nc4ncnn34)C2)c(C(F)(F)F)o1 [Compound 161] as well.
(A) 74.1

(Q) Item: Cc1c(C(=O)N2CC[C@@H](C)[C@H](c3cc(C(F)F)nc4ncnn34)C2)oc2ccccc12 [Compound 48]
(A) 0.174

(Q) Same lookup for Cc1cc(C)nc(C(=O)N2CC[C@@H](C)[C@H](c3cc(C(F)F)nc4ncnn34)C2)c1 [Compound 137] , please.
(A) 28.2

(Q) // next record Cc1nocc1C(=O)N1CC[C@@H](C)[C@H](c2cc(C(F)F)nc3ncnn23)C1 [Compound 184]
(A) 28.2

(Q) How about Cc1cc(C(=O)N2CC[C@@H](C)[C@H](c3cc(C(F)F)nc4ncnn34)C2)c(F)c(C(F)(F)F)n1 [Compound 396] ?
(A) 15.1

(Q) # iterate: C[C@@H]1CCN(C(=O)c2cc3ccc(C(F)(F)F)cc3[nH]2)C[C@H]1c1cc(C(F)F)nc2ncnn12 [Compound 94]
(A) 0.501

(Q) What would you report for Cc1nc2ccc(C(=O)N3[C@H]4CC[C@H](c5cc(C(F)F)nc6ncnn56)[C@@H]3CC4)cc2o1 [Compound 303] ?
(A) 7.08

(Q) # iterate: CC1(c2ccnc3ncnn23)CCCN(C(=O)c2ccc3occc3c2)C1 (stereo not drawn) [Compound 202]
(A) 2690

(Q) Subsequent entry: Cc1cc(C(=O)N2[C@H]3CC[C@@H]2[C@H](c2cc(C(F)F)nc4ncnn24)CC3)c(F)cn1 [Compound 62]
(A) 3020

(Q) Also C[C@@H]1CCN(C(=O)c2ccc(F)c(C(F)(F)F)c2)C[C@H]1c1cc(C(F)F)nc2ncnn12 [Compound 194] ?
(A) 18.6

(Q) What do you have for Cc1cc(C(=O)N2[C@H]3CC[C@H](c4cc(C(F)F)nc5ncnn45)[C@@H]2CC3)cc(F)c1F [Compound 344] ?
(A) 29.5

(Q) One more compound: Cc1cc([C@@H]2CN(C(=O)c3cc4ccccc4o3)CC[C@H]2C)n2ncnc2n1 [Compound 8]
(A) 1.1

(Q) Next record, please: C[C@@H]1CCN(C(=O)c2ccnc(C3CC3)c2F)C[C@H]1c1cc(C(F)F)nc2ncnn12 [Compound 120]
(A) 1.74

(Q) How about COc1cc(C(=O)N2CC[C@@H](C)[C@H](c3cc(C(F)F)nc4ncnn34)C2)c(C)cn1 [Compound 53] ?
(A) 5.62

(Q) Same again, this time with COc1nc(C)c(C(=O)N2CC[C@@H](C)[C@H](c3cc(C(F)F)nc4ncnn34)C2)s1 [Compound 185]
(A) 21.9

(Q) Field entry: Cc1csc(C(=O)N2CC[C@@H](C)[C@H](c3cc(C(F)F)nc4ncnn34)C2)c1 [Compound 126]
(A) 2.09

(Q) Also check Cc1ccc(C(=O)N2CCC[C@](C)(c3cc(C(F)F)nc4ncnn34)C2)c(C)n1 (single isomer, unassigned) [Compound 210]
(A) 617
